# assay-system: recombinant human DPP-1 (Cathepsin C) (Homo sapiens, UniProt P53634)
# Sequence (P53634 25-463): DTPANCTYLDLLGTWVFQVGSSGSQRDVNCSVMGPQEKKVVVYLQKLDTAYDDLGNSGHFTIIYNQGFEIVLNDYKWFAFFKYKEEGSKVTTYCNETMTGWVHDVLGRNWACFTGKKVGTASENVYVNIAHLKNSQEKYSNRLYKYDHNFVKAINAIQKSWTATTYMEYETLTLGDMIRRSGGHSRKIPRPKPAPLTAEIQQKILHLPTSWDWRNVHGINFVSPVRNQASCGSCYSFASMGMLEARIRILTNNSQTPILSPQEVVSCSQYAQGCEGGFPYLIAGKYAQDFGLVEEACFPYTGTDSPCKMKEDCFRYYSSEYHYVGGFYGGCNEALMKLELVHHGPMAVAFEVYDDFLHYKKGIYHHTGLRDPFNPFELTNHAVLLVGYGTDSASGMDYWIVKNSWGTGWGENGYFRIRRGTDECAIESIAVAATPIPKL
# procedure-summary: DPP-1 Inhibition Assay (In Vitro)
# cond: fluorogenic substrate GR-AMC 10 uM, 0.15 nM DPP-1, pH 7.0, room temperature; average value where tested multiple times
Structures can show the parent of a compound that is named as a salt.
reported-metric: IC50 (nM)

molecule: N[C@@H](Cc1cccs1)C(=O)N1CCN(c2nc3ccc(-c4ccccc4F)cc3s2)CC1
reported-metric: IC50
meas-value: 580
--
molecule: Cc1ccc(-c2ccc3nc(N4CCN(C(=O)[C@@H](N)Cc5cccs5)CC4)sc3c2)cc1
reported-metric: IC50
meas-value: 1100

a: N[C@@H](Cc1cccs1)C(=O)N1CCN(c2nc3ccccc3o2)CC1 [Compound 2, hydrochloride]
b: N[C@@H](Cc1cccs1)C(=O)N1CCN(c2nc3ccccc3s2)CC1
Of a and b , whose reported IC50 is numerically smaller? Indicate your choice by writing its label. a

All figures here come from patent US8481547B2.
